Assay: MTT cytotoxicity assay on macrophages
Type: cell-based, human
Conditions: human, THP-1-derived macrophages (PMA-differentiated, uninfected), MTT, 24 h; read-out: Uninfected THP-1-Derived Macrophages CC50
Description: The human myelomonocytic cell line, THP-1, was ordered from the American Type Culture Collection (ATCC, TIB-202). […] The viability of THP-1 mature macrophage-like cells was determined to be >97% by the Trypan blue dye exclusion assay. […] The promastigotes and THP-1-derived macrophage viabilities were expressed as the percentage of the viable promastigotes or cells in treated conditions relative to the 1% DMSO cultures, as previously described in [7]. […]
measured attribute: CC50 at 24 h (µM)
Give your result in µM as a bare value.

*Q* What does the data say about its CC50 at 24 h? Entry: CC(C)CCC[C@@H](C)[C@H]1CC[C@H]2[C@@H]3CC(=O)[C@H]4C[C@@H](O)CC[C@]4(C)[C@H]3CC[C@]12C [6-ketocholestanol]
*A* 77

###

target: eIF4AMus (Mus musculus); construct: His6; made in house; host or cells: Escherichia coli Rosetta; assay: RNA-dependent ATPase assay (Malachite green), eIF4AMus; type: biochemical; settings: ATPase kinetics, saturating yRNA
Sequence (P60843 whole entry): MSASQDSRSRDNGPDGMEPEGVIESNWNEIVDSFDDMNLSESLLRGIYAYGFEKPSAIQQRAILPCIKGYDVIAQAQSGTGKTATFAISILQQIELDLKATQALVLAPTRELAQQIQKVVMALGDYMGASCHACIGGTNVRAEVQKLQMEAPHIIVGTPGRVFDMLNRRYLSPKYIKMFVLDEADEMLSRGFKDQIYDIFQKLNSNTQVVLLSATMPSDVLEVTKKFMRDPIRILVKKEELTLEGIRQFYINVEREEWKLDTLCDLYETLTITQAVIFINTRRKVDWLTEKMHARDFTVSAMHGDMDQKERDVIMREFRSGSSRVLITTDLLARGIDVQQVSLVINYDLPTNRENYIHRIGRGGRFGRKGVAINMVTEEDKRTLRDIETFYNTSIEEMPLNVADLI
measured attribute: pKi
Please note pKi is a logarithmic value: minus log10 of concentration in mol/L. Answer with that number alone.

*Q* What does the data say about its pKi? Entry: CC(C)CCC[C@@H](C)[C@H]1CC[C@H]2[C@@H]3[C@H](N)C=C4C[C@@H](O)CC[C@]4(C)[C@H]3CC[C@]12C [7-α-aminocholesterol]
*A* 4.09

###

tested on: THP-1-derived macrophages; assay: MTT cytotoxicity assay on macrophages; type: cell-based, human; conditions: MTT, 24 h; read-out: Uninfected THP-1-Derived Macrophages CC50
measured attribute: CC50
Be sure to follow the number with its unit.

*Q* What does the data say about its CC50? Entry: CC(C)CCC[C@@H](C)[C@H]1CC[C@H]2[C@@H]3CC(=O)[C@H]4C[C@@H](O)CC[C@]4(C)[C@H]3CC[C@]12C
*A* 76.9 µM

###

assay: MTT cytotoxicity assay on macrophages; type: cell-based, human; details: human, Uninfected THP-1-Derived Macrophages CC50
measured attribute: CC50 at 24 h (µM)
Give your result in µM as a bare value.

*Q* What does the data say about its CC50 at 24 h? Entry: CC(C)CCC[C@@H](C)[C@H]1CC[C@H]2[C@@H]3[C@H](N)C=C4C[C@@H](O)CC[C@]4(C)[C@H]3CC[C@]12C
*A* 17.5
